Where these numbers come from: PubChem BioAssay (EPA / NIEHS)

- procedure details: CCTE_Shafer_MEA_acute_cross_correlation_area: CCTE's Neural Acute Assay for Area of Cross Correlation, Shafer Lab (AID 2284024);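 also: area under pooled inter-electrode spike cross-correlation near zero lag as percent change from own baseline; curves fitted for loss of cross-correlation area so actives lower synchrony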
Activity calls are given as the source filed them. The calls were made as follows: active = hit-call score of the fitted dose curve at least 0.9, where 1 is the maximum; inactive = score below 0.9.
Bench note: report the call from 1.0 for active, 0.0 for inactive

COc1ccc(C(=O)c2ccccc2O)c(O)c1 : 1.0
CNCCC(Oc1ccc(C(F)(F)F)cc1)c1ccccc1 (stereo unspecified) : 0.0
O=[N+]([O-])c1cc(S(=O)(=O)Nc2ccccc2)ccc1Nc1ccccc1 : 0.0
CN(C)C(=O)C(CCN1CCC(O)(c2ccc(Cl)cc2)CC1)(c1ccccc1)c1ccccc1 : 0.0
CC(C)C1OCCN1CCOC(=O)NCCCCCCNC(=O)OCCN1CCOC1C(C)C (stereo unspecified) : 0.0
CC1(C)S[C@@H]2[C@H](NC(=O)[C@H](N)c3ccccc3)C(=O)N2[C@H]1C(=O)O : 0.0

### Prompt Tell me the recorded outcome of this test for CN(C)Cc1cc(C(C)(C)C)c(O)c(C(C)(C)C)c1 .
### Response 0.0

### Prompt Tell me the recorded outcome of this test for CC1(C)S[C@@H]2[C@H](NC(=O)[C@H](N)c3ccc(O)cc3)C(=O)N2[C@H]1C(=O)O .
### Response 0.0

### Prompt Tell me the recorded outcome of this test for C1CN(CCOCCN2CCOCC2)CCO1 .
### Response 0.0

### Prompt Tell me the recorded outcome of this test for COc1cc(CNC(=O)CCCC/C=C/C(C)C)ccc1O .
### Response 0.0

### Prompt Tell me the recorded outcome of this test for CC[N+](CC)(CC(=O)Nc1c(C)cccc1C)Cc1ccccc1 (tested in a mixture with another compound) .
### Response 0.0

---

- assay system: Cellular tumor antigen p53 (Homo sapiens) (UniProt P04637)
- Sequence (P04637 whole entry, looked up): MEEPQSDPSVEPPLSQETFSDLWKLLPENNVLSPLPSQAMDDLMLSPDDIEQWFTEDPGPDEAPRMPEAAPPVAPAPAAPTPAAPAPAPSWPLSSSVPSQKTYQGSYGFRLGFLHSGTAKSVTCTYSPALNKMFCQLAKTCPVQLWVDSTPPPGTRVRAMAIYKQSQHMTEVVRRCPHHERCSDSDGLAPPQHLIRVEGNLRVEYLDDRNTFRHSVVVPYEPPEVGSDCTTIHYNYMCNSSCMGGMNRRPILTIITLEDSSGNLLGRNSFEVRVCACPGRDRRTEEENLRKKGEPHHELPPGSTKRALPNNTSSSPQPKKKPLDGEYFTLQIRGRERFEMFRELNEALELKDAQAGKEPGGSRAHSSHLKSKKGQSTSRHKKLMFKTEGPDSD
- procedure details: TOX21_p53_BLA_p3_ratio: Tox21 HCT-116 p53 Agonism Beta-lactamase Assay, Ratio, Phase 3 (AID 2283596)
Records with an inconclusive call do not appear. Active and inactive are the calls of the source. How the source made its calls: active means hit-call score of the fitted dose curve at least 0.9, where 1 is the maximum; inconclusive means response in the unintended direction; inactive means score below 0.9.
Bench note: report the call from Y for active, N for inactive

Worked cases, answers included:
COC(=O)CCC[N+](C)(C)C : N
CCOC(=O)Cn1cccc1-c1nc(-c2ccc(OC)cc2)c(-c2ccc(OC)cc2)s1 : Y
Nc1nnc(-c2ccc([N+](=O)[O-])o2)o1 : N
C=CC1=C(C(=O)O)N2C(=O)[C@@H](NC(=O)/C(=N\O)c3csc(N)n3)[C@H]2SC1 (stereo in doubt) : N

### Prompt Tell me the recorded outcome of this test for O=C(O)c1c2ccccc2cc2ccccc12 .
### Response N

### Prompt Tell me the recorded outcome of this test for COC(=O)CCC(=O)CN .
### Response N

### Prompt Tell me the recorded outcome of this test for CC12CCC(CC1=O)C2(C)C (centres undefined) .
### Response N

### Prompt Tell me the recorded outcome of this test for C[Si](NC1CCCCC1)(NC1CCCCC1)NC1CCCCC1 .
### Response N

### Prompt Tell me the recorded outcome of this test for CCc1oc2ccccc2c1C(=O)c1cc(I)c(O)c(I)c1 .
### Response Y

### Prompt Tell me the recorded outcome of this test for CCCCOc1cc(C(=O)NCCN(CC)CC)c2ccccc2n1 .
### Response N

### Prompt Tell me the recorded outcome of this test for O=C(O)c1ccc(OCCn2ccnc2)cc1 .
### Response N

### Prompt Tell me the recorded outcome of this test for CCOC(=O)c1ccccc1 .
### Response N

### Prompt Tell me the recorded outcome of this test for C[N+]1(CC2COC(c3ccccc3)(C3CCCCC3)O2)CCCCC1 (centres undefined) .
### Response N

### Prompt Tell me the recorded outcome of this test for CCC=CC#N .
### Response N

### Prompt Tell me the recorded outcome of this test for CCCCCCCCCCCCCCCCCCO .
### Response N

### Prompt Tell me the recorded outcome of this test for C[C@@H](O)[C@H]1C(=O)N2C(C(=O)[O-])=C(SC3Cn4cnc[n+]4C3)[C@H](C)[C@H]12 (some centres undefined) .
### Response N

### Prompt Tell me the recorded outcome of this test for COc1cc([C@@H]2c3cc4c(cc3[C@H](O)[C@H]3COC(=O)[C@H]23)OCO4)cc(OC)c1OC .
### Response N

### Prompt Tell me the recorded outcome of this test for CSc1ccc(/C=C2/C(C)=C(CC(=O)O)c3cc(F)ccc32)cc1 .
### Response N

### Prompt Tell me the recorded outcome of this test for CC12CC3CC(C)(C1)CC(N)(C3)C2 .
### Response N

### Prompt Tell me the recorded outcome of this test for OCCN1CCN(CCCN2c3ccccc3C=Cc3ccccc32)CC1 .
### Response N

### Prompt Tell me the recorded outcome of this test for CCc1nnc(NS(=O)(=O)c2ccc(N)cc2)s1 .
### Response N

### Prompt Tell me the recorded outcome of this test for C#C[C@]1(OC(C)=O)CC[C@H]2[C@@H]3CCC4=CC(=O)CC[C@@H]4[C@H]3CC[C@@]21C .
### Response N

### Prompt Tell me the recorded outcome of this test for CN(C)CCCN1c2ccccc2C(C)(C)c2ccccc21 .
### Response N

### Prompt Tell me the recorded outcome of this test for O=C(O)CN1C(=O)c2cccc3cccc(c23)C1=O .
### Response N

### Prompt Tell me the recorded outcome of this test for CC(C)(C(=O)O)c1ccc(C(O)CCCN2CCC(C(O)(c3ccccc3)c3ccccc3)CC2)cc1 (centres undefined) .
### Response N

### Prompt Tell me the recorded outcome of this test for CN1CC(=O)N/C1=N/C(=O)Nc1cccc(Cl)c1 .
### Response N
